System: HCT-116
Assay: NCI panel growth inhibition, sulforhodamine B
Type: cell-based
Settings: Homo sapiens; HCT-116, Colon cancer; drug for last 48 h of 72 h
Quick list: IC50 per entry.
Reply numerically in µM, unit not repeated.

{"chemical-structure": "Nc1ccc(Oc2ccc(C3(c4ccc(Oc5ccc(N)cc5)cc4)C4CC5CC(C4)CC3C5)cc2)cc1", "IC50, µM": 2.71}
{"chemical-structure": "Nc1ccc(Oc2ccc(C34CC5CC(C3)CC(c3ccc(Oc6ccc(N)cc6C(F)(F)F)cc3)(C5)C4)cc2)c(C(F)(F)F)c1", "IC50, µM": 24.9}

// below: IC50 requested for another compound
Requested read-out IC50, target or system HCT-116, entry Nc1ccc(Oc2ccc(C34CC5CC(C3)CC(c3ccc(Oc6ccc(N)cc6)cc3)(C5)C4)cc2)cc1
5.65
